- System: CEM cells HIV-1 protection, formazan growth assay
- protocol_text: NCI AIDS Antiviral Assay;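 active = compounds giving half or more protection of infected cells from virus-caused growth loss, again on retest; inactive = the rest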
Outcome codes: active, inactive

molecule	label_value
CCCCCCCCCCCCCCCC(=O)Nc1ccn(C2CCC(COP(=O)(O)OC3CC(n4cc(F)c(=O)[nH]c4=O)OC3CO)O2)c(=O)n1 (stereo not given)	inactive
O=C(NCCCCCN1CCC2(CCCCC2)CC1)C(C1CCCCC1)C1CCCCC1	inactive
CN(C)NC(=S)C(F)(F)C(F)(F)F	inactive
N#C[C@H](C(=O)c1ccccc1F)c1nc2ccccc2s1	inactive
O=S(=O)(c1ccccc1)C(Br)c1ccccc1 (stereo not given)	inactive
CCNCC(O)c1ccc(N)c([N+](=O)[O-])c1 (stereo not given)	inactive
COc1cccc(/C=C2/Sc3sc(C(C)=O)c(C)[n+]3C2=O)c1O	active
CC(C)OC(=O)/C=C/C(=O)O/C=C/[N+](=O)[O-]	inactive
CNC=O	inactive
COc1cc2ccccc2oc1=O	inactive
O=c1oc2ccccc2cc1Cl	inactive
O=C1C(O)C(O)C(O)C(O)C1O (stereo not given)	inactive
CCOC(=O)c1nc2ccccc2nc1Oc1cc(OC)cc(OC)c1	inactive
O=C(Nc1ccccc1)C1CC=C2CCC3OC(=O)C1C23 (stereo not given)	inactive
S=C(SSC(=S)C1CCCC1=NC1CCCCC1)C1CCCC1=NC1CCCCC1 (stereo not given)	inactive
Cc1ccc([N+](=O)[O-])cc1NC(=O)C(=O)C(C(=O)c1ccccc1F)C1OC(=O)c2ccccc21 (stereo not given)	inactive
O=S(=O)(O)ON=C1c2ccccc2-c2ccccc21	inactive
C=C1OC2OC(C)C(NC(=O)OCC(Cl)(Cl)Cl)C(OC(C)=O)C2O1 (stereo not given)	inactive
COc1ccc2nc3ccccc3c(NCCCCN(C)CCCl)c2c1	inactive
FC(F)(F)P1C2C=CC(CC2)C1(F)F (stereo not given)	inactive
N#C/C(=C\c1ccccc1)c1cccc(I)c1	inactive
C/C(O)=C(\N=O)C(=O)Nc1ccc(Cl)cc1Cl	inactive
O=C(/C=C/c1ccccc1)/C=C/c1ccccc1O	inactive
O=c1[nH][nH]c(=O)c2nc(Nc3ccco3)ncc12	inactive
CCOc1ccc(NC(=O)C(=O)C(C(=O)c2ccc3ccccc3c2)C2OC(=O)c3ccccc32)cc1 (stereo not given)	inactive
Cc1nc(-[n+]2nc(-c3ccncc3)nn2-c2ccccc2)sc1C	inactive
CC1=C(C(=O)N[C@@H](CC(C)C)C(=O)O)N2C(=O)[C@@H](NC(=O)[C@@H](N)Cc3ccccc3)[C@H]2SC1	inactive
O=c1n(-c2ccccc2)c(=O)n2n1C1C3C4CCC1C4(Cl)C32 (stereo not given)	inactive
CCCCC1Sc2cc(OC)cc([N+](=O)[O-])c2NC1=O (stereo not given)	inactive

* * *

Overview of recorded pIC50 for various compounds
- Tested on: CEM cells HIV-1 protection, formazan growth assay
- protocol_text: NCI AIDS Antiviral Assay
- run_conditions: measured here: growth of uninfected CEM cells
pIC50: −log10 of the molar value.

smiles_representation	relation_symbol	pIC50
O=C1/C(=C/c2ccc([N+](=O)[O-])cc2)Cc2ccccc21	<	5.69
Cc1nc(C(N)=S)sc1C(=O)CC(=O)C(=O)Nc1ccc(Br)cc1	<	4.07
CC1(C)COC(c2cccc3c2C(=O)c2cccc(Cl)c2-3)=N1	=	4.10
CC1=C(c2nc3ccccc3s2)C(=O)OC1(C)C	=	3.91
